tested on: XF 498 CNS; assay: NCI tumour cell line growth inhibition, 48 h
reportedEndpoint: log10 of TGI (log10 of the value in µM)
Short version: log10 scale, TGI, µM.

Example entries and their recorded answers appear below.
molecule	log10 of TGI
Cc1cc([N+](=O)[O-])ccc1NC(=O)C(=O)C(C(=O)c1ccccc1-c1ccccc1)C1OC(=O)c2ccccc21 (centres undefined)	1.25
COc1cc([C@@H]2c3cc4c(c(O)c3C[C@H]3COC(=O)[C@@H]32)OCO4)cc(OC)c1OC	-1.05
CC(=O)Nc1ccc(/C=c2\sc3nnc(CCC(=O)Nc4ccccc4Cl)n3c2=O)cc1	1.70
COc1ccc(OC(C)=O)c2c1CCC=CC2=O	1.49
CCOC(=O)C1SC(=Nc2cccc(Cl)c2C)N=C1C (centres undefined)	1.60

Qu. Supply reported log10 of TGI belonging to this molecule: Cc1cc([N+](=O)[O-])ccc1Sc1c2ccccc2nc2cc(Cl)ccc12
Ans. 1.96

Attribution: PubChem BioAssay (NCI)
